Values compiled from paper PMC7115421.

system: 184B5 immortalized breast cell line; experiment: SRB cytotoxicity assay, 184B5 non-cancer cells; assay type: cell-based, human; settings: Homo sapiens, 184B5
pIC50: −log10 of the molar value.
measured.quantity: pIC50

CCN(CC)CCCC(C)Nc1ccnc2cc(Cl)ccc12 (stereo not shown) [Compound 1, Chloroquine diphosphate]
4.12
